tested on: 786-0; assay: NCI tumour cell line growth inhibition, 48 h
Calls of active or inactive are those of the source. Cut-off read from the data, not from the text of the source: active = GI50 up to about 1.1 µM and inactive = higher.
Please state which outcome applies, choosing from True for active, False for inactive

input: Fill in: this test's call for COc1ccc(-c2c3c(n(C4OC(COC(C)=O)C(OC(C)=O)C(OC(C)=O)C4OC(C)=O)c(=S)c2C#N)CCCC3)cc1 (configuration not stated) is ___
output: False

input: What was the test verdict on CC(=O)/N=C1\NC(=O)/C(=C/c2ccc(Cl)cc2Cl)N1C ?
output: False

input: State the result this test recorded for CC(=O)/C=C/c1ccc(C)cc1 .
output: False

----------
test system: SNB-78; assay: NCI tumour cell line growth inhibition, 48 h
Activity calls are given as the source filed them. Cut-off read from the data, not from the text of the source: active = GI50 up to about 1.1 µM and inactive = higher.
Let's look at some compounds and their measured GI50.

# count of solved cases: 3
Cn1c2c(c3ccccc31)CCN(CCCCN1CCN(c3cccc(Cl)c3)CC1)C2=O | 2.88 µM (inactive)
CC(=O)OC1CC(n2cc(F)c(=O)[nH]c2=O)OC1CO (centres undefined) | > 100 µM (inactive)
CN(C)c1c([O-])c(=[N+](C)C)c1=O | > 100 µM (inactive)

Field: next compound
input: Reported GI50, compound CC1=C2[C@@H](c3ccccc3)C3C=CC2(C=C3C(F)(F)F)N(C(=O)NC2CCCCC2)C1=O (some centres undefined) : ____
output: 36.1 µM (inactive)

----------
tested on: OVCAR-4; experiment: NCI tumour cell line growth inhibition, 48 h
Activity calls are given as the source filed them. No stated cut-off is given here; in the data, active = GI50 up to about 1.1 µM and inactive = higher.
Allowed answers: active, inactive

CCCC(=O)OC[n+]1ccc2c(C)c3[nH]c4ccccc4c3c(C)c2c1 | active

input: Each compound tested received a call. Report the one for CC(C)(C)C#CI1OC(=O)c2ccccc21 .
output: inactive

input: State the result this test recorded for COc1ccc2c(c1)CCC(CN1CCN(CCOC(c3ccccc3)c3ccccc3)CC1)C2O (stereo unspecified) .
output: inactive

input: Could you kindly confirm the outcome this assay logged for CC(C)(C)c1cc(C(C)(C)C)c(SS(=O)(=O)O)c(O)c1O ?
output: inactive

input: Query: recorded result category for COC(=O)[C@@H](NC(=O)N(Cc1ccccc1)C[C@H](CC(C)C)NC(=O)[C@@H](NC(=O)OC(C)(C)C)C(C)C)C(C)C in this test
output: inactive

input: Dear all, I need the recorded test outcome for O=C(/C(=C/c1ccc(O)cc1)c1ccccc1)c1ccccc1 , thank you.
output: inactive

input: // param item: COC(=O)[C@]1(c2cc3ccccc3n2S(=O)(=O)c2ccccc2)CC2CCC1NC2 (stereo partly specified) ; yields the recorded call
output: inactive

input: Recorded test outcome, item COc1ccc(-c2c3c(n(C4OC(COC(C)=O)C(OC(C)=O)C(OC(C)=O)C4OC(C)=O)c(=S)c2C#N)CCCC3)cc1 (stereo unspecified)
output: inactive

input: Recorded test outcome, item C/C=C/C=N/N(C(=O)c1cc([N+](=O)[O-])cc([N+](=O)[O-])c1)C1=NN=C(c2ccccc2)C(c2ccccc2)N1 (stereo unspecified)
output: inactive

input: Per the assay record, what outcome was assigned to COc1ccc(N(C(=O)OC(C)(C)C)[C@@H]2C(C)=C[C@H]([S@@+]([O-])c3ccc(C)cc3)[C@@H]3C(=O)N(C)C(=O)[C@@H]32)cc1 ?
output: inactive

input: Record request — test call for C[C@@]1(c2ccccc2)O[C@@H]2C[C@H]3[C@@H]4CCC5=CC(=O)C=C[C@]5(C)[C@@]4(F)[C@@H](O)C[C@]3(C)[C@]2(C(=O)CO)O1 [AMCINAFIDE]
output: inactive

input: What is the recorded call for this compound in the test? CSC1=C(C(=O)N(COCC[Si](C)(C)C)c2ccccc2Br)CCC(C(C)(C)C)C1 (stereo unspecified)
output: inactive

input: Fill in: this test's call for O=C1C(=CNc2ccc([N+](=O)[O-])cc2)C(=O)N(c2ccccc2)C(=O)N1c1ccccc1 is ___
output: inactive

input: GET /call?item= C=CCCCCn1c2ccccc2c2c(C)c3cnccc3c(C)c21 returns the recorded outcome of this test.
output: inactive

input: Field: outcome | Entry: C1OCC2S[C@@H]3COCO[C@@H]3C2O1 (stereo partly specified)
output: inactive

input: Field: outcome | Entry: CC1=NN(c2cccc(S(=O)(=O)O)c2)C2(C1)C(Cl)C(=O)N2c1nc2ccccc2s1 (stereo unspecified)
output: inactive

input: Name the outcome recorded for Cc1ccc(-c2c(C#N)c(N)nc3c2CCS(=O)(=O)c2ccccc2-3)cc1 in the assay.
output: inactive

input: Call for entry NCC(=O)NC(CO)C(=O)O (stereo unspecified) :
output: inactive

input: // param item: COc1cc(/C=N/c2nc3cc4sc(/N=C/c5cc(OC)c(OC)c(OC)c5)nc4cc3s2)cc(OC)c1OC ; yields the recorded call
output: inactive

input: Identify the outcome logged in this assay for the compound shown: O=C1C2=Cc3ccccc3OC2(O)Oc2ccccc21 (stereo unspecified)
output: inactive

input: Just curious, what result did N#Cc1ccnc(C(=O)N2CCCC2C(=O)O)c1 (stereo unspecified) get here?
output: inactive

input: In this assay, the call recorded for CC(=O)OCC(C)C1=C(O)C(=O)C2(C)C/C=C(/C)CC/C=C(\C)CCC(O)C(C)CCC12 (stereo unspecified) was what?
output: inactive

input: Returns: the outcome recorded for CC(=O)Oc1c(Br)ccc2cc(C(Br)Br)c(C(=O)c3ccccc3)nc12 in this assay.
output: inactive

input: In this assay, the call recorded for Cc1ccc(C2(c3ccc(F)cc3)OC(=O)c3ccccc32)c(O)c1 (stereo unspecified) was what?
output: inactive

input: // return assay outcome for Nc1ccc(C(=O)NN2C(=O)C(Cl)C2c2ccccc2O)cc1 (stereo unspecified)
output: inactive

input: Field: outcome | Entry: O=C1C2c3[nH]c4ccccc4c3[C@@H]3CCCCCCCCCCC3C2C(=O)N1c1ccccc1 (stereo partly specified)
output: inactive

----------
test system: SNB-78; assay: NCI tumour cell line growth inhibition, 48 h
The source made the active and inactive calls. Cut-off read from the data, not from the text of the source: active = GI50 up to about 1.1 µM and inactive = higher.
Measured GI50 values are reported for all entries that follow.

Below, 2 compounds whose answers are already recorded.
Cc1noc(C)c1CCCOC1COc2ccccc2OCCOCCOc2ccccc2OC1 | > 100 µM (inactive)
CC(C)c1ccc(/C=C(\NC(=O)c2ccccc2)c2nc3ccccc3[nH]2)cc1 | 42.9 µM (inactive)

Now consider a different compound.
input: Which GI50 value is on record for O=C(/C=C/c1ccccc1)c1ccc(Cl)cc1Cl ?
output: 22.6 µM (inactive)

----------
system: BT-549; assay: NCI tumour cell line growth inhibition, 48 h
Active and inactive are the calls of the source. Cut-off read from the data, not from the text of the source: active = GI50 up to about 1.1 µM and inactive = higher.
Valid outcomes are listed here; reply with one: T = active, F = inactive

For orientation, consider the following solved cases.
Cc1ccc([N+](=O)[O-])cc1S(=O)(=O)Nc1ccc(C2=NN(c3ccc([N+](=O)[O-])cc3[N+](=O)[O-])C(c3cccs3)C2)cc1 (stereo not given) | F
COc1ccc2c(c1)CCC(CN1CCN(CCOC(c3ccccc3)c3ccccc3)CC1)C2O (stereo not given) | F
Oc1cc(O)c2c(c1)OC(c1ccc(O)c(O)c1)C(O)C2c1c(O)cc(O)c2c1OC(c1ccc(O)c(O)c1)C(O)C2 (stereo not given) | F

input: Would you mind telling me which call this test gave COC(=O)c1ccc(/C=C(\c2ccc([N+](=O)[O-])o2)S(=O)(=O)c2ccc(NC(C)=O)cc2)o1 ?
output: T

input: What outcome does the record of this test show for COc1cc2c3c(cc(Cl)nc3c1OC)C(O)(CC(C)=O)C(=O)N2 (stereo not given) ?
output: F

input: What did this assay record as the result for CC1(C)CC(=O)c2c(nc3ccc4ccccc4c3c2-c2ccc(NC(=O)CCCCC(=O)Nc3ccc(-c4c5c(nc6ccc7ccccc7c46)CC(C)(C)CC5=O)cc3)cc2)C1 ?
output: F

input: Field: outcome | Entry: CC(=O)Nc1ccc(C(=O)NN2C(=O)C(Cl)C2c2ccc(Cl)cc2)cc1 (stereo not given)
output: F

----------
tested on: OVCAR-3; test: NCI tumour cell line growth inhibition, 48 h
Activity calls are given as the source filed them. No stated cut-off is given here; in the data, active = GI50 up to about 1.1 µM and inactive = higher.
Entries and their GI50 values follow.

Please review the following examples before continuing.
O=C(Nc1ccc(Cl)cc1C(=O)O)c1ccc([N+](=O)[O-])cc1 | 22.4 µM (inactive)
CC(=O)Nc1ccc(C(=O)NN2C(=O)C(Cl)C2c2ccc(Cl)cc2)cc1 (centres undefined) | 18.8 µM (inactive)
CC1(C)OC2C(O)C(CO)OC2(C(F)F)O1 (centres undefined) | > 100 µM (inactive)

input: # lookup: GI50 of CCOC(=O)/C(=N/Nc1ccccc1)N1C(=S)N(C)N=C(C)C=C1S
output: > 100 µM (inactive)

----------
GI50 reference
system: OVCAR-3; assay: NCI tumour cell line growth inhibition, 48 h
Active and inactive are the calls of the source. Rule as the data show it: active = GI50 up to about 1.1 µM and inactive = higher.

Below, 2 compounds whose answers are already recorded.
COc1ccc(C2=C3c4cc(OC)c(OC)cc4CCN3C(=S)SS2)cc1OC | > 100 µM (inactive)
COc1cc(C2c3cc4c(cc3[C@@H](NCCCN3CCCC3=O)C3COC(=O)[C@H]23)OCO4)cc(OC)c1O (stereo partly drawn) | 45.9 µM (inactive)

Could you now look at the following compound, please?
input: So what does the record say about GI50 for COc1ccc(C(C)c2cc3c(cc2OC)OCO3)cc1 (stereo not drawn) ?
output: 0.107 µM (active)
